# MEASURED_TARGET: Cytochrome P450 2C19 (Homo sapiens) (UniProt P33261)
# Sequence (P33261 whole entry, looked up): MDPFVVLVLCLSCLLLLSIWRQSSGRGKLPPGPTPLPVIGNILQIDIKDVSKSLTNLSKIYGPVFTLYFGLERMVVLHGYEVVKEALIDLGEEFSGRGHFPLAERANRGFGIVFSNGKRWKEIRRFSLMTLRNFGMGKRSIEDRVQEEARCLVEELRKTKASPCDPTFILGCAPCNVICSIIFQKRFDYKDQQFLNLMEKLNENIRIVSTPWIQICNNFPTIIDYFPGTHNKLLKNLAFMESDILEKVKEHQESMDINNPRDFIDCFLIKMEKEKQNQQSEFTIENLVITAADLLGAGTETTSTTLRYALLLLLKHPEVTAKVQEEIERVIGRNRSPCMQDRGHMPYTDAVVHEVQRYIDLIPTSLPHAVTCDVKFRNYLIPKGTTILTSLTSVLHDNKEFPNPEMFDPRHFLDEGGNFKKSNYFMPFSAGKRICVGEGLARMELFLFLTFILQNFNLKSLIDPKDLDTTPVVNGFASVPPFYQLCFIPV
# PROTOCOL_DETAILS: blockers of cytochrome P450 2C19 activity – biochemical, luminescence, ADME assay, primary screen (AID 778);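 further: plate controls were negative control wells for no effect and 2.5 mM tranylcypromine positive control for full effect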
# TEST_PARAMETERS: CYP2C19 Supersomes, luciferin-H EGE luminescence, 30 min; at 5 µM; active compounds read high
The campaign covered roughly 96,000 compounds. About 20,000 (21%) were called active. A selection follows.
Quick reference: inhibition of the listed items.

Known results for compounds:
- COMPOUND: "CCOC(=O)CCC(=O)OCC(=O)NC(C)C1CC2CCC1C2 (stereo unspecified)"
  MEASURED_TARGET: "Cytochrome P450 2C19 (Homo sapiens) (UniProt P33261)"
  QUANTITY_MEASURED: "inhibition"
  READING: "10.6% (inactive)"
- COMPOUND: "COc1ccc2[nH]c(=O)c(-c3noc(-c4ccc(F)cc4)n3)cc2c1"
  MEASURED_TARGET: "Cytochrome P450 2C19 (Homo sapiens) (UniProt P33261)"
  QUANTITY_MEASURED: "inhibition"
  READING: "-20.6% (inactive)"
- COMPOUND: "Cc1ccc(-c2noc(CCC(N)=O)n2)cc1"
  MEASURED_TARGET: "Cytochrome P450 2C19 (Homo sapiens) (UniProt P33261)"
  QUANTITY_MEASURED: "inhibition"
  READING: "13.5% (inactive)"
- COMPOUND: "Cc1ccc(N(CC(=O)Nc2cccc(N(C)S(C)(=O)=O)c2)S(C)(=O)=O)cc1"
  MEASURED_TARGET: "Cytochrome P450 2C19 (Homo sapiens) (UniProt P33261)"
  QUANTITY_MEASURED: "inhibition"
  READING: "3% (inactive)"
- COMPOUND: "Cc1ccc(-c2noc(CCC(=O)Nc3ccccc3N3CCN(C)CC3)n2)cc1"
  MEASURED_TARGET: "Cytochrome P450 2C19 (Homo sapiens) (UniProt P33261)"
  QUANTITY_MEASURED: "inhibition"
  READING: "57% (active)"
- COMPOUND: "COc1cccc(N(CC(=O)Nc2cccc(F)c2)S(C)(=O)=O)c1"
  MEASURED_TARGET: "Cytochrome P450 2C19 (Homo sapiens) (UniProt P33261)"
  QUANTITY_MEASURED: "inhibition"
  READING: "48.9% (inactive)"
- COMPOUND: "CC(Sc1nnc(Cc2ccc([N+](=O)[O-])cc2)o1)C(N)=O (stereo unspecified)"
  MEASURED_TARGET: "Cytochrome P450 2C19 (Homo sapiens) (UniProt P33261)"
  QUANTITY_MEASURED: "inhibition"
  READING: "16.6% (inactive)"
- COMPOUND: "COC(=O)CN(c1cccc(C(C)=O)c1)S(C)(=O)=O"
  MEASURED_TARGET: "Cytochrome P450 2C19 (Homo sapiens) (UniProt P33261)"
  QUANTITY_MEASURED: "inhibition"
  READING: "3.1% (inactive)"
- COMPOUND: "COc1ccccc1-c1n[nH]c2c1[C@H](C)CC[C@H]2C(C)C"
  MEASURED_TARGET: "Cytochrome P450 2C19 (Homo sapiens) (UniProt P33261)"
  QUANTITY_MEASURED: "inhibition"
  READING: "21% (inactive)"
- COMPOUND: "COc1cccc(N2C(=O)CC(N3CCN(S(=O)(=O)c4ccccc4)CC3)C2=O)c1 (stereo unspecified)"
  MEASURED_TARGET: "Cytochrome P450 2C19 (Homo sapiens) (UniProt P33261)"
  QUANTITY_MEASURED: "inhibition"
  READING: "1.5% (inactive)"

Would you kindly share the measured inhibition for S=c1[nH]nc(-c2ccco2)n1/N=C/c1ccc(Br)s1 ? -11.6% (inactive)

----------
# MEASURED_TARGET: Cytochrome P450 2C19 (Homo sapiens) (UniProt P33261)
# PROTOCOL_DETAILS: blockers of cytochrome P450 2C19 activity – biochemical, luminescence, ADME assay, primary screen (AID 778);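 further: plate controls were negative control wells for no effect and 2.5 mM tranylcypromine positive control for full effect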
# TEST_PARAMETERS: CYP2C19 Supersomes, luciferin-H EGE luminescence, 30 min; at 5 µM
The whole screen tested about 96,000 compounds, of which about 20,000 (21%) were called active.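 Rule for the calls: active = CYP2C19 inhibition above a set limit at 5 µM in the primary screen (cut at about 50% in these data); inactive = the rest.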 A selection follows.
// one of Yes (active), No (inactive), no free text

- COMPOUND: "CCOC(=O)c1cc2c(n(-c3ccc(C)cc3)c1=O)CCCC2=O"
  LABEL: "No"
- COMPOUND: "Cc1ccc(-n2c(SCC(=O)Nc3ccc4c(c3)OCO4)nnc2-c2ccoc2C)cc1"
  LABEL: "No"
- COMPOUND: "CC1Cc2ccccc2N1C(=O)Cn1cnc2ccccc2c1=O (stereo not drawn)"
  LABEL: "No"

// return assay outcome for O=C(CSc1nc(C2CC2)nc2ccccc12)Nc1ccc2c(c1)OCCO2 No

Do the same for CCC(=O)Nc1cccc(NC(=O)CSc2nnnn2C2CCCC2)c1 please No

----------
# MEASURED_TARGET: Cytochrome P450 2C19 (Homo sapiens)
# PROTOCOL_DETAILS: blockers of cytochrome P450 2C19 activity – biochemical, luminescence, ADME assay, primary screen (AID 778);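 further: plate controls were negative control wells for no effect and 2.5 mM tranylcypromine positive control for full effect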
# TEST_PARAMETERS: CYP2C19 Supersomes, luciferin-H EGE luminescence, 30 min; at 5 µM; active compounds read high
Among all 96,000 compounds or so, about 20,000 (21%) were called active. These entries were drawn from the full list.
QUANTITY_MEASURED: inhibition (%)
Numeric only. Scale: %

- COMPOUND: "O=C(CN1C(=O)NC2(CCCCC2)C1=O)NCCC1=CCCCC1"
  inhibition [%]: 8.2

Would you kindly share the measured inhibition for Cc1cccc(OCC(O)Cn2c(=N)n(CCN3CCOCC3)c3ccccc32)c1 (stereo not drawn) ? -5.1

Do the same for COc1ccc(C)cc1NC(=O)CCC(=O)Nc1nnc(C(F)(F)F)s1 please -1.8

Do the same for CCOC(=O)C1(S(=O)(=O)c2ccccc2)CCN(Cc2ccccc2)CC1 please 51.8

Do the same for CCCC(=O)C1CCN(Cc2ccccc2)CC1 please 30.5

Do the same for O=C1C(=O)N(c2ccccc2)c2ccccc21 please 2.6

Do the same for Cn1nc([N+](=O)[O-])nc1Sc1ccc(C(C)(C)C)cc1 please 97.1

Do the same for Cn1cnc([N+](=O)[O-])c1Sc1ccccc1 please 30.3

Do the same for COc1ccc(OC)c(C2N(c3ccccn3)C(=O)C3CCCN32)c1 (stereo not drawn) please -2.4

Do the same for Cc1cccc(-n2c(N)c(C(=O)N3CCN(C)CC3)sc2=S)c1 please 6.5

Do the same for O=S(=O)(c1ccc(OCC(O)CN2CCN(c3ccccc3Cl)CC2)cc1)N1CCOCC1 (stereo not drawn) please 50.4

Do the same for O=C(Nc1cccc2ncccc12)C(Cl)(Cl)Cl please 6.6

Do the same for CCOc1ccc(/C(O)=C2/C(=O)C(=O)N(Cc3cccnc3)C2c2ccc(N(C)C)cc2)c(C)c1 (stereo not drawn) please 3.8

Do the same for CN(C)/C=C/C(=O)c1ccccc1F please -7

Do the same for CCCc1ccc(-c2c(C)sc(NC(=O)c3ccnn3C)c2C#N)cc1 please 23.9

Do the same for CC(C)NC(=O)NC(=O)COC(=O)c1ccc(NC(=O)CC#N)cc1 please 0.7

Do the same for CC(C)(C)NC(=O)Cn1cnc([N+](=O)[O-])n1 please 6.1

Do the same for O=C(COc1cccc(-n2cnnn2)c1)NCCC1=CCCCC1 please 89.3

Do the same for CC1(C)CN=C(N2CCN(c3ncnc4sc5c(c34)CCCC5)CC2)S1 please 32

Do the same for O=C(NCCCCO)C(F)(F)C(F)(F)C(F)(F)C(=O)NCCCCO please 9.4

----------
# MEASURED_TARGET: Cytochrome P450 2C19 (Homo sapiens) (UniProt P33261)
# PROTOCOL_DETAILS: blockers of cytochrome P450 2C19 activity – biochemical, luminescence, ADME assay, primary screen (AID 778);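 further: plate controls were negative control wells for no effect and 2.5 mM tranylcypromine positive control for full effect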
# TEST_PARAMETERS: CYP2C19 Supersomes, luciferin-H EGE luminescence, 30 min; at 5 µM; active compounds read high
In all, about 96,000 compounds went through this assay and about 20,000 (21%) were called active. Not all results are given here.
Quick reference: inhibition of the listed items.
Numeric only. Scale: %

- MOLECULE: "O=C(Nc1nc2ccc(S(=O)(=O)N3CCCC3)cc2s1)C1CCCO1 (stereo unspecified)"
  inhibition (%): -2.2
- MOLECULE: "C=CCn1c(N)c(C(=O)OCC(C)C)c2nc3ccccc3nc21"
  inhibition (%): 18.5
- MOLECULE: "N#CCSc1nc2ccc(N3CCOCC3)cc2c(=O)n1CCc1ccccc1"
  inhibition (%): 12.7
- MOLECULE: "O=C(COc1cc(Cl)c(Cl)cc1Cl)NC(=O)NC1CCCC1"
  inhibition (%): -6.2
- MOLECULE: "Cc1ccccc1N1CC(c2nc3ccccc3[nH]2)CC1=O (stereo unspecified)"
  inhibition (%): 81.9
- MOLECULE: "CCOC(=O)c1ccc2c(c1)nc(SCC(=O)NC(C)C)n2CC"
  inhibition (%): 85.7
- MOLECULE: "C=CCOc1c2ccc(C(=O)N(CC)c3ccc(OC)cc3)cc2nn1C"
  inhibition (%): 44.1
- MOLECULE: "CCn1c(SCC(=O)NCC2CCCO2)nc2cc(S(=O)(=O)N3CCCCC3)ccc21 (stereo unspecified)"
  inhibition (%): 11

Would you kindly share the measured inhibition for Cc1ccc(S(=O)(=O)c2c(N)n(C)c3nc4ccccc4nc23)cc1 ? 47.7

Do the same for O=c1[nH]c(CSc2ncc(-c3ccc(F)cc3)n2Cc2ccco2)nc2ccccc12 please 32

Do the same for CCn1c(C)nc2cc(C(=O)NNS(=O)(=O)c3ccc(C)cc3C)ccc21 please 1.5
